Test system: HT-29
testDetails: NCI tumour cell line growth inhibition, 48 h
The source made the active and inactive calls. No stated cut-off is given here; in the data, active = GI50 up to about 1.1 µM and inactive = higher.
Possible outcomes: active, inactive

[
  {
    "compound": "CC(=O)n1cc(C2CC23N=C(c2ccccc2)OC3=O)c2ccccc21 (stereo not given)",
    "assignedClass": "inactive"
  },
  {
    "compound": "CC12CC(Br)(Br)C(=O)C3C1CCCC32",
    "assignedClass": "inactive"
  },
  {
    "compound": "Cc1c(C(=N)N)oc2ccccc12",
    "assignedClass": "inactive"
  },
  {
    "compound": "CSc1n[nH]c2[nH]nc(C)c12",
    "assignedClass": "inactive"
  },
  {
    "compound": "C=C(C)[C@@H]1CC[C@]2(C)CC[C@]3(C)[C@H](CC[C@@H]4[C@@]5(C)CC[C@H](O)C(C)(C)[C@@H]5CC[C@]43C)[C@@H]12",
    "assignedClass": "inactive"
  },
  {
    "compound": "Cc1c(O)c(=O)ccn1CCc1c[nH]c2ccccc12",
    "assignedClass": "inactive"
  },
  {
    "compound": "COc1cc2c3c(c1O)-c1c(ccc(OC)c1OC)CC3N(C)CC2 (stereo not given)",
    "assignedClass": "inactive"
  },
  {
    "compound": "CCN(CCCl)c1cc(CN(C)C)cc(NC(=O)c2ccc(C(=O)Nc3cccc(N(CCCl)NN)c3)cc2)c1",
    "assignedClass": "active"
  },
  {
    "compound": "CC1CCc2sc3nc(S)n(C)c(=O)c3c2C1 (stereo not given)",
    "assignedClass": "inactive"
  },
  {
    "compound": "COc1ccc(C2=NN(c3ccccc3)C[N+](c3ccc(C)cc3)=N2)cc1",
    "assignedClass": "inactive"
  }
]
